# SYSTEM_TESTED: Melanocyte-stimulating hormone receptor (Homo sapiens, UniProt Q01726)
# Sequence (Q01726 whole entry): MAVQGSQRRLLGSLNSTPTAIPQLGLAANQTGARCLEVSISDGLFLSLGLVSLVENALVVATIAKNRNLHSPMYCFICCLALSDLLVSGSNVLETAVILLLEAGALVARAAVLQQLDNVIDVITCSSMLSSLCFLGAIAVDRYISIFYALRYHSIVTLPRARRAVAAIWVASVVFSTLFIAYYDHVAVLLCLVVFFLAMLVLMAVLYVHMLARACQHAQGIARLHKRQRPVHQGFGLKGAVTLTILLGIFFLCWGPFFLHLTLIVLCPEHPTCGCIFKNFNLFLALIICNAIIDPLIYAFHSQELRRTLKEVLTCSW
# ASSAY_NOTES: Concentration required for 50% inhibition by displacement of [125I]NDP-alpha-MSH of human MC1R expressed in CHO cells
Listed below: IC50 values for each entry.
PROPERTY_LABEL: IC50 (nM)

>>> value("CC(C)(C)NC(=O)C1(C2CCCCC2)CCN(C(=O)[C@@H](Cc2ccc(Cl)cc2)NC(=O)[C@H]2CCc3ccccc3[C@@]2(C)N)CC1")
620
>>> value("CC(C)(C)NC(=O)C1(C2CCCCC2)CCN(C(=O)[C@@H](Cc2ccc(Cl)cc2)NC(=O)C2CCCc3ccccc3C2N)CC1 (stereo not given in full)")
220
>>> value("CC(C)(C)NC(=O)C1(C2CCCCC2)CCN(C(=O)[C@@H](Cc2ccc(Cl)cc2)NC(=O)[C@H]2CCc3ccccc3[C@H]2N)CC1")
530
>>> value("CC(C)(C)NC(=O)C1(C2CCCCC2)CCN(C(=O)[C@@H](Cc2ccc(Cl)cc2)NC(=O)[C@@H]2CCc3ccccc3[C@@H]2N)CC1")
980
>>> value("CC(C)(C)NC(=O)C1(C2CCCCC2)CCN(C(=O)[C@@H](Cc2ccc(Cl)cc2)NC(=O)C2Cc3ccccc3C2N)CC1 (stereo not given in full)")
1400
